Reference for the values: patent US7772255B2

Assay: Bioavailability and pharmacokinetics in normal rats
Assay type: in vivo, rat
Details: female, CD, rat, plasma, po, 100 mg/kg, rat plasma, acid suspended in 1% methyl cellulose
endpoint: AUC (ng·h/mL)
Give bare numbers, in ng·h/mL.

Summary for this molecule, `CC(C)c1ccc2oc3nc(N)c(C(=O)O)cc3c(=O)c2c1` : AUC is 8830

* * *

Test: Pharmacokinetics and bioavailability in normal mice
Assay type: in vivo, mouse
Settings: female, C57BL/6; mouse plasma; oral; 100 mg/kg
Structures can show the parent of a compound that is named as a salt.
endpoint: half-life
Returns: string containing the number followed by the unit.

Entry under test: CC(C)c1ccc2oc3nc(N)c(C(=O)O)cc3c(=O)c2c1 [Amlexanox (salt), sodium salt] . Its half-life was 1.5 h

* * *

Assay: Bioavailability and pharmacokinetics in normal rats
Format: in vivo, rat
Details: female, CD, rat, plasma, po, 200 mg/kg, rat; acid; 200 mg/kg; read-out: Bioavailability for oral administration
Method: Female CD rats (from 200 to 250 g body weight) were obtained from Charles River Canada Inc. (St. Constant, Quebec, Canada). […] The samples were analysed by HPLC using 250×4.6 mm, Phenomenex C18 Luna, 5 micron column, 1 mL/min flow rate of mobile phase 73% of 25 mM sodium phosphate pH 7.5 and 27% acetonitrile; fluorescent deyection λexcitation=348 nm, λemission=404 nm. […]
endpoint: bioavailability (%)
Give bare numbers, in %.

The reported bioavailability of the molecule `CC(C)c1ccc2oc3nc(N)c(C(=O)O)cc3c(=O)c2c1` was 2.5

* * *

Assay: Bioavailability and pharmacokinetics in normal rats
Type: in vivo, rat
Conditions: female, CD, rat, plasma, iv, 50 mg/kg, rat plasma; I.V.
Where a name gives a salt, the structure may show the parent alone.
endpoint: Cmax (µg/mL)
One number for each entry, in µg/mL.

Record CC(C)c1ccc2oc3nc(N)c(C(=O)O)cc3c(=O)c2c1 [Amlexanox (salt), sodium salt] . Reported Cmax: 165

* * *

Experiment: Pharmacokinetics and bioavailability in normal mice
Assay type: in vivo, mouse
Settings: female, C57BL/6, iv; mouse plasma; i.v.; 100 mg/kg
Counter-ions that a name gives are not always drawn.
endpoint: clearance (mL/min/kg)
Answers are plain numbers, in mL/min/kg.

Entry CC(C)c1ccc2oc3nc(N)c(C(=O)O)cc3c(=O)c2c1 [Amlexanox (salt), sodium salt] — recorded clearance = 0.167

* * *

Experiment: Bioavailability and pharmacokinetics in normal rats
Format: in vivo, rat
Conditions: female, CD, iv; rat plasma; I.V.; 25 mg/kg; read-out: Vss
Protocol: Female CD rats (from 200 to 250 g body weight) were obtained from Charles River Canada Inc. (St. Constant, Quebec, Canada). […] The samples were analysed by HPLC using 250×4.6 mm, Phenomenex C18 Luna, 5 micron column, 1 mL/min flow rate of mobile phase 73% of 25 mM sodium phosphate pH 7.5 and 27% acetonitrile; fluorescent deyection λexcitation=348 nm, λemission=404 nm. […]
Structures can show the parent of a compound that is named as a salt.
endpoint: Vd (L/kg)
Give bare numbers, in L/kg.

Data point: CC(C)c1ccc2oc3nc(N)c(C(=O)O)cc3c(=O)c2c1 [Amlexanox (salt), sodium salt] ; Vd = 0.99

* * *

Experiment: Pharmacokinetics and bioavailability in normal mice
Assay type: in vivo, mouse
Settings: female, C57BL/6, iv; mouse plasma; i.v.; 10 mg/kg
Counter-ions that a name gives are not always drawn.
endpoint: MRT
Quick note: number first, unit second.

The measured MRT associated with CC(C)c1ccc2oc3nc(N)c(C(=O)O)cc3c(=O)c2c1 [Amlexanox (salt), sodium salt] reads 30 min
